# targetUnderTest: HCV E1E2 antigen, isolate UKN3A1.28c (hepatitis C virus, isolate UKN3A1.28c)
# protocolSummary: ELISA, Fab on E1E2 antigen
Recorded OD 450 nm for the following binders

Record excerpt, results attached:
Fab V1 (Fab, V domains shown) VH: VQLLEQSGAEVQKPGASVKVSCKPSGYIFTNFGISWVRQAPGQGLEWMAWINTYNGKTTYAQSLQGRVTLTTDPYTNTVFMELRSLRSDDTAVYYCARENEGEYVWGHFRSDYWGQGTLVTVSS VL: ELTQSPSSLSASVGDRVTITCQASQDISNFLNWYQRRPGKAPNLLIYDATHLETGVPSRFSGSGFGTHFTLTINSLQPEDIGTYYCQHFDDVPSFTFGPGTKVDLKR | 0.06 OD 450 nm
Fab U1 (Fab, V domains shown) VH: VQLLEQSGPEVKRPGTSVKMSCKISGGASITQAMSWVRQAPGQGLEWMGGITPIFGTVNYAQKILGRVTITADEDTVSLELSSLKSEDTAVYYCAREVNLKTWNLAHPNVFDVWGQGTMLTVSS VL: ELTQSPSSLSASVGDRVTITCRASQSISSFLNWYQQKPGKAPKLLIYAASSLQSGVPPRFSGSGSGTDFTLTISSLQPEDFATYYCQQSYSTPRTFGQGTKLEIKR | 0.11 OD 450 nm

Dear colleague, I am looking for the recorded OD 450 nm of the following binder: Fab O1 (Fab, V domains shown) VH: VQLLEQSGAEVKKAGESVRLSCKASGYRFGDYWIAWVRQLPGRAPEWMGIIYPDDSDTKYSPSFQGQVTISADKSIRTTFLDWGSLKASDTAIYYCARGCLGAKCYYPHYYYGLDVWGQGTTVIVSS VL: ELTQSPSSLSASVGDRVTITCRATQGIDNYLNWYQQKPGKPPRLLIYGASSLQSGVPSRFSGGGSGTHFTLTITNLQPEDFATYYCQQSYSTPPETFGQGTKVEIKR 0.48 OD 450 nm
